Each recorded value in this set is attributed to patent US20050142531A1.

assay: Conductivities and solubilities of selected multipeptides at their pI; assay type: physicochemical; conditions: Table 1
Peptide text beside a SMILES is read from it.
Please respond with reported pI for every item in the list.
Could you keep your reply to the number by itself?

Using known records, supply pI for NCCCC[C@H](N)C(=O)N[C@@H](CC(=O)O)C(=O)O [Lys-Asp] (H-Lys-Asp-OH; N-terminus and C-terminus assumed)
6.08

Using known records, supply pI for NCCCC[C@H](NC(=O)[C@@H](N)CCC(=O)O)C(=O)O [Glu-Lys] (H-Glu-Lys-OH; N-terminus and C-terminus assumed)
6.00

Using known records, supply pI for NCCCC[C@H](N)C(=O)N[C@@H](CCC(=O)O)C(=O)O [Lys-Glu] (H-Lys-Glu-OH; N-terminus and C-terminus assumed)
6.06
